The measurements presented in this section are drawn from PubChem BioAssay (NCI).

# Test system: EKVX NSCLC
# TEST: NCI tumour cell line growth inhibition, 48 h
REPORTED_ENDPOINT: TGI

// worked examples, TGI included
{"columns": ["COMPOUND", "EXPERIMENTAL_RESULT"],
 "data": [
  ["CCC1(OC(C)=O)C(=O)OCc2c1cc1n(c2=O)Cc2cc3ccccc3nc2-1 (stereo not drawn)", "> 100 µM"],
  ["CC[C@@H]1OC2(C)CC(S(=O)(=O)c3ccccc3)CC1O2 (stereo partly drawn)", "> 100 µM"],
  ["Oc1c(CN2CCCC2)cc(COCc2ccccc2)c2cccnc12", "15.6 µM"]
]}

Provide each entry's TGI from the list below.
1. O=C1c2cc(CCl)sc2C(=O)c2ccsc21
2. C[Si](C)(C)/C=C/CN1C(=O)CCC1O (stereo not drawn)
3. C=C(C)[C@H]1CC/C(C)=C/CCC(C)C(=O)CC/C(CO)=C\[C@@H]1O (stereo partly drawn)

2.74 µM
> 100 µM
> 100 µM

Please supply TGI for each of the following items, keeping them in order.
1. NC(CCCCNc1ccn(C2OC(CO)C(O)C2O)c(=O)n1)C(=O)O (stereo not drawn)
2. CC(C)[Si](OC1=CCCCCC12C(=O)N(C)c1ccccc12)(C(C)C)C(C)C (stereo not drawn)
3. O=C1OC(CN2CCN(c3ccccc3)CC2)CN1C(=S)Nc1ccccc1 (stereo not drawn)

> 100 µM
38.6 µM
> 100 µM

Kindly give each listed record's TGI.
1. CC12ON=C(c3ccccc3)N1C=CN1C(c3ccccc3)=NOC12 (stereo not drawn)
2. Cn1c(=O)n(CC(Br)CBr)c(=O)n(CC(Br)CBr)c1=O (stereo not drawn)
3. Fc1ccccc1C1CC(C(c2ccccc2)c2ccccc2)=Nc2ccccc2S1 (stereo not drawn)
4. CCC(=O)NCCc1c[nH]c2ccc(OC)cc12
5. CCOC(=O)c1nc2cc(C(F)(F)F)ccc2nc1Nc1ccc(Cl)c(Cl)c1
6. COc1ccc(NC2=NCCO2)c2ccccc12

["> 100 µM", "88.7 µM", "24.5 µM", "> 100 µM", "> 100 µM", "> 10 µM"]
